// reported log10 EC50 per item
# measured-target: human GPR52 (Homo sapiens)
# Sequence (Q9Y2T5 whole entry): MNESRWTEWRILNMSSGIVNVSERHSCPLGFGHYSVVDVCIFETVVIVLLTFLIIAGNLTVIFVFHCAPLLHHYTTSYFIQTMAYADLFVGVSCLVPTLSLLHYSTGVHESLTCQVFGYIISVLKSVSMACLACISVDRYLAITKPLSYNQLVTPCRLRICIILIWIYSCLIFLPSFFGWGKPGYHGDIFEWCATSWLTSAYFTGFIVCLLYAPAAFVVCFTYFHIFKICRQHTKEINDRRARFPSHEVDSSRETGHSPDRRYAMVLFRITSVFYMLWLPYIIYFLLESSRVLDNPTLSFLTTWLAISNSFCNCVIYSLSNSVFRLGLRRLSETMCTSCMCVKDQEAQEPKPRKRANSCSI
# procedure-text: Increase of intracellular cAMP concentration in human GPR52-expressing CHO cell (AlphaScreen cAMP assay)
# study-conditions: concentration of the test compound at which it shows 50% activity; human GPR52-expressing CHO(dhfr-) cells; read-out: GPR52 agonist activity EC50
readout-type: log10 EC50 (log10 of the value in nM)

{"compound": "Cc1nn(-c2cccc3cc(Cc4cc(F)cc(F)c4)sc23)c(C)c1C(=O)NCCO [Example 99]", "numeric-readout": 1.11}
{"compound": "Cc1nn(-c2cccc3oc(Cc4cccc(C(F)(F)F)c4)cc23)c(C)c1C(=O)NCCO [Example 75]", "numeric-readout": 1.48}
{"compound": "Cc1nc(-c2cccc3nn(Cc4cccc(C(F)(F)F)c4)cc23)sc1C(N)=O [Example 41]", "numeric-readout": 1.69}
{"compound": "Cn1nc(-c2cccc3cc(Cc4cccc(C(F)(F)F)c4)sc23)cc1C(=O)NCCO [Example 111]", "numeric-readout": 1.58}
{"compound": "Cc1c(C(=O)NCC(N)=O)c(CO)nn1-c1cccc2cc(Cc3cccc(C(F)(F)F)c3)sc12 [Example 68]", "numeric-readout": 2.23}
{"compound": "Cc1nc(-c2cccc3cc(Cc4cccc(C(F)(F)F)c4)sc23)oc1C(=O)NCC(N)=O [Example 11]", "numeric-readout": 2.46}
{"compound": "Cc1nn(-c2cccc3cc(Cc4cc(F)cc(Cl)c4)sc23)c(C)c1C(=O)NCCO [Example 56]", "numeric-readout": 0.84}
{"compound": "Cc1nn(-c2ccc(F)c3cc(Cc4cc(F)cc(Cl)c4)sc23)c(CO)c1C(=O)NCCO [Example 90]", "numeric-readout": 1.15}
{"compound": "Cc1nn(-c2ccc(F)c3cc(Cc4cccc(C(F)(F)F)c4)sc23)c(C)c1C(=O)NCC(N)=O [Example 58]", "numeric-readout": 1.60}
{"compound": "COCCNC(=O)c1cn(-c2cccc3cc(Cc4cccc(C(F)(F)F)c4)sc23)nc1C [Example 14]", "numeric-readout": 1.15}
{"compound": "Cc1nn(-c2cccc3cc(Cc4cccc(C(F)(F)F)c4)sc23)c(CO)c1C(N)=O [Example 64]", "numeric-readout": 1.26}
{"compound": "Cc1nn(-c2cccc3cc(Cc4cccc(C(F)(F)F)c4)sc23)cc1C(N)=O [Example 17]", "numeric-readout": 1.04}
{"compound": "Cc1nn(-c2cccc3cc(Cc4cccc(C(F)(F)F)c4)sc23)cc1C(=O)NCCO [Example 15]", "numeric-readout": 0.76}
{"compound": "Cc1nn(-c2ccc(F)c3cc(Cc4cccc(C(F)(F)F)c4)sc23)c(CO)c1C(=O)NCCO [Example 71]", "numeric-readout": 1.43}

---

// reported activity at 1 µM per item
# measured-target: human GPR52 (Homo sapiens)
# Construct: expressed in transfected cells; host or cells: CHO(dhfr-) cells
# procedure-text: Increase of intracellular cAMP concentration in human GPR52-expressing CHO cell (AlphaScreen cAMP assay)
# Format: cell-based
# study-conditions: CHO, 1µM test compound; 100% = cAMP with 1 µM Reference Example 79, 0% = DMSO; human GPR52-expressing CHO(dhfr-) cells, 37°C, 30 min; read-out: GPR52 agonist activity (%)
readout-type: activity at 1 µM (%)

{"record-smiles": "COCCNC(=O)c1cn(-c2cccc3cc(Cc4cccc(C(F)(F)F)c4)sc23)nc1C", "measured-target": "human GPR52 (Homo sapiens)", "numeric-readout": 87}
{"record-smiles": "Cc1cn(-c2cccc3cc(Cc4cccc(C(F)(F)F)c4)sc23)nc1C(=O)NCC(N)=O", "measured-target": "human GPR52 (Homo sapiens)", "numeric-readout": 96}
{"record-smiles": "COCCNC(=O)c1sc(-c2cccc3cc(Cc4cccc(C(F)(F)F)c4)sc23)nc1C", "measured-target": "human GPR52 (Homo sapiens)", "numeric-readout": 90}
{"record-smiles": "Cc1cn(-c2cccc3cc(Cc4cccc(C(F)(F)F)c4)sc23)cc1C(=O)NCC(N)=O", "measured-target": "human GPR52 (Homo sapiens)", "numeric-readout": 107}
{"record-smiles": "COCc1c(C(=O)NCCO)c(C)nn1-c1cccc2cc(Cc3cccc(C(F)(F)F)c3)sc12", "measured-target": "human GPR52 (Homo sapiens)", "numeric-readout": 91}
{"record-smiles": "Cc1nn(-c2cccc3cc(Cc4cccc(C(F)(F)F)c4)sc23)cc1C(=O)NCC(N)=O", "measured-target": "human GPR52 (Homo sapiens)", "numeric-readout": 94}
{"record-smiles": "NC(=O)CNC(=O)c1cn(-c2cccc3cc(Cc4cccc(C(F)(F)F)c4)sc23)nc1C(F)(F)F", "measured-target": "human GPR52 (Homo sapiens)", "numeric-readout": 94}
{"record-smiles": "Cc1nn(-c2ccc(F)c3cc(Cc4cccc(C(F)(F)F)c4)sc23)c(C)c1C(=O)NCCO", "measured-target": "human GPR52 (Homo sapiens)", "numeric-readout": 105}
{"record-smiles": "Cc1nn(-c2cccc3cc(Cc4cccc(C(F)(F)F)c4)sc23)c(CO)c1C(=O)NCC(N)=O", "measured-target": "human GPR52 (Homo sapiens)", "numeric-readout": 94}
{"record-smiles": "Cc1nn(-c2ccc(F)c3cc(Cc4cccc(C(F)(F)F)c4)sc23)c(CO)c1C(N)=O", "measured-target": "human GPR52 (Homo sapiens)", "numeric-readout": 97}
{"record-smiles": "Cc1nc(-c2cccc3cc(Cc4cccc(C(F)(F)F)c4)sc23)sc1C(=O)NCCC#N", "measured-target": "human GPR52 (Homo sapiens)", "numeric-readout": 101}
{"record-smiles": "Cc1nn(-c2cccc3sc(Cc4cccc(C(F)(F)F)c4)cc23)c(C)c1C(N)=O", "measured-target": "human GPR52 (Homo sapiens)", "numeric-readout": 93}
{"record-smiles": "Cc1nn(-c2cccc3sc(Cc4cc(F)cc(Cl)c4)cc23)c(C)c1C(N)=O", "measured-target": "human GPR52 (Homo sapiens)", "numeric-readout": 89}
{"record-smiles": "Cc1nn(-c2ccc(F)c3cc(Cc4cc(F)cc(Cl)c4)sc23)c(CO)c1C(N)=O", "measured-target": "human GPR52 (Homo sapiens)", "numeric-readout": 99}
{"record-smiles": "CC(C)c1nn(-c2cccc3cc(Cc4cccc(C(F)(F)F)c4)sc23)cc1C(=O)NCCO", "measured-target": "human GPR52 (Homo sapiens)", "numeric-readout": 96}
{"record-smiles": "Cc1nn(-c2cccc3cc(Cc4cccc(C(F)(F)F)c4)sc23)c(C)c1C(=O)NCCO", "measured-target": "human GPR52 (Homo sapiens)", "numeric-readout": 107}
{"record-smiles": "COCCNC(=O)c1cnn(-c2cccc3cc(Cc4cccc(C(F)(F)F)c4)sc23)c1C", "measured-target": "human GPR52 (Homo sapiens)", "numeric-readout": 79}
{"record-smiles": "Cc1nn(-c2cccc3cc(Cc4cccc(C(F)(F)F)c4)sc23)c(CO)c1C(=O)NCCO", "measured-target": "human GPR52 (Homo sapiens)", "numeric-readout": 99}
{"record-smiles": "Cc1nn(-c2cccc3cc(Cc4cccc(C(F)(F)F)c4)sc23)cc1C(N)=O", "measured-target": "human GPR52 (Homo sapiens)", "numeric-readout": 96}
{"record-smiles": "Cc1nc(-c2cccc3cc(Cc4cccc(C(F)(F)F)c4)sc23)sc1C(=O)NCCO", "measured-target": "human GPR52 (Homo sapiens)", "numeric-readout": 93}
{"record-smiles": "COc1cc(Cc2cc3cccc(-n4nc(C)c(C(N)=O)c4C)c3s2)ccc1F", "measured-target": "human GPR52 (Homo sapiens)", "numeric-readout": 98}
{"record-smiles": "Cc1nn(-c2ccc(F)c3cc(Cc4cc(F)cc(Cl)c4)sc23)c(C)c1C(=O)NCC(N)=O", "measured-target": "human GPR52 (Homo sapiens)", "numeric-readout": 93}
{"record-smiles": "NC(=O)c1cn(-c2cccc3cc(Cc4cccc(C(F)(F)F)c4)sc23)nc1C(F)(F)F", "measured-target": "human GPR52 (Homo sapiens)", "numeric-readout": 93}
{"record-smiles": "Cc1nn(-c2cccc3nn(Cc4cc(F)cc(Cl)c4)cc23)c(C)c1C(=O)NCCO", "measured-target": "human GPR52 (Homo sapiens)", "numeric-readout": 105}
{"record-smiles": "Cc1nn(-c2ccc(F)c3cc(Cc4cccc(C(F)(F)F)c4)sc23)c(CO)c1C(=O)NCCO", "measured-target": "human GPR52 (Homo sapiens)", "numeric-readout": 114}
{"record-smiles": "Cc1nn(-c2cccc3sc(Cc4cccc(C(F)(F)F)c4)cc23)c(C)c1C(=O)NCC(N)=O", "measured-target": "human GPR52 (Homo sapiens)", "numeric-readout": 94}
{"record-smiles": "Cc1nc(-c2cccc3cc(Cc4cccc(C(F)(F)F)c4)sc23)sc1C(=O)NCC(N)=O", "measured-target": "human GPR52 (Homo sapiens)", "numeric-readout": 97}
{"record-smiles": "Cc1cccc(Cc2cc3cccc(-n4nc(C)c(C(N)=O)c4C)c3s2)c1", "measured-target": "human GPR52 (Homo sapiens)", "numeric-readout": 95}
{"record-smiles": "O=C(NCCO)c1sc(-c2cccc3cc(Cc4cccc(C(F)(F)F)c4)sc23)nc1C(F)(F)F", "measured-target": "human GPR52 (Homo sapiens)", "numeric-readout": 92}
{"record-smiles": "Cc1nn(-c2cccc3cc(Cc4cc(F)cc(F)c4)sc23)c(C)c1C(=O)NCCO", "measured-target": "human GPR52 (Homo sapiens)", "numeric-readout": 99}
{"record-smiles": "Cc1nn(-c2ccc(F)c3cc(Cc4cccc(C(F)(F)F)c4)sc23)c(CO)c1C(=O)NCC(N)=O", "measured-target": "human GPR52 (Homo sapiens)", "numeric-readout": 96}
{"record-smiles": "Cc1cc(C(=O)NCCO)n(-c2cccc3cc(Cc4cccc(C(F)(F)F)c4)sc23)n1", "measured-target": "human GPR52 (Homo sapiens)", "numeric-readout": 79}
